Source: ChEMBL document CHEMBL1201862

This listing pairs compounds with measured GI50.
Test system: CCRF-CEM
assay-summary: NCI tumour cell line growth inhibition, 48 h
Active and inactive are the calls of the source. Cut-off read from the data, not from the text of the source: active = GI50 up to about 1.1 µM and inactive = higher.
parameter-measured: GI50

compound	parameter-measured	observed
N#Cc1cc2cc3c4c(c2oc1=O)CCCN4CCC3	GI50	> 100 µM (inactive)
C/C(=N\N=C(/S)N1CC2CCC(CC2)C1)c1ccncn1	GI50	< 0.01 µM (active)
O[C@@H]1C[C@H]2N3CC[C@@]2(c2cc4c(cc2C3)OCO4)[C@H]2O[C@@H]12	GI50	> 100 µM (inactive)
COC(=O)/C=C/c1cc2c(cc1-c1c(C(=O)O)cc(OC)c(OC)c1OC)OCO2	GI50	> 10 µM (inactive)
CC1(CCC(=O)OC2CCCCC2)OCCO1	GI50	> 100 µM (inactive)
O=C1c2ccccc2C(=O)c2c(O)ccc(O)c21	GI50	> 100 µM (inactive)
O=C(O)C1=C/C(=C(/c2ccccc2)c2cc(C(=O)O)c(O)c3ccccc23)c2ccccc2C1=O	GI50	< 0.01 µM (active)
Cc1c(F)c(N)c2c(=O)cc(-c3ccc(NC(=O)[C@@H](N)CCCCN)c(F)c3)oc2c1F	GI50	3.52 µM (inactive)
S=C1SCN(Cc2ccco2)CN1c1ccc(Br)cc1	GI50	16.4 µM (inactive)
O=C(OCCN=c1c2ccccc2ccc2ccccc12)c1ccccc1	GI50	40.8 µM (inactive)
COc1ccc(C(=O)C#Cc2cn(C3CC(O)C(CO)O3)c(=O)[nH]c2=O)cc1 (stereo unspecified)	GI50	> 10 µM (inactive)
CNC(=O)N(CCC#N)CCCN(C(=O)NC)c1ccccc1	GI50	> 100 µM (inactive)
CC(=O)O[C@@H]1[C@H]2[C@@H](OC(=O)c3ccccc3)[C@@H](C)C[C@]2(O)[C@H](OC(C)=O)[C@@]2(C)[C@@H]3CC(C)(C)C(=O)[C@]3(OC(C)=O)C[C@@]12C	GI50	1.92 µM (inactive)
C=C(CCOC)CCC1CCCCC(=C)C1=O (stereo unspecified)	GI50	> 100 µM (inactive)
CC(CN(C)C)C(C#N)(c1ccccc1)c1ccccc1 (stereo unspecified)	GI50	49.1 µM (inactive)
O=C(C(=O)n1ccc2ccccc21)n1ccc2ccccc21	GI50	38.7 µM (inactive)
CCOc1ccc2c(c1)[n+]([O-])c(-c1ccc(Br)cc1)c(N)[n+]2[O-]	GI50	53.1 µM (inactive)
Fc1ccc(F)c(/C=N/C23CC4CC(CC(C4)C2)C3)c1	GI50	5.13 µM (inactive)
C=CCNC1=C2C[C@@H](C)C[C@@H](OC)[C@H](OC(=O)CN(C)C)[C@H](C)/C=C(\C)[C@@H](OC(N)=O)[C@H](OC)/C=C\C=C(/C)C(=O)NC(=CC1=O)C2=O	GI50	3.08 µM (inactive)
CCn1c2ccccc2c2ccc3c(c21)C(=O)C=CC3=O	GI50	0.375 µM (active)
CCOC(=O)/C(=C\c1ccc(N(C)C)cc1)S(=O)(=O)C(F)(F)C(F)(F)C(F)(F)C(F)(F)F	GI50	> 100 µM (inactive)
CN1CN(c2ccccc2)C2(CCN(CCC3COc4ccccc4O3)CC2)C1=O (stereo unspecified)	GI50	17.9 µM (inactive)
CCC/C(Cl)=N\OC(=O)Nc1ccc(F)cc1	GI50	1.63 µM (inactive)
COc1c(Cl)c(=O)oc2ccc(Cl)cc12	GI50	> 100 µM (inactive)
NC1C/C(=N\O)c2c(I)sc(I)c21 (stereo unspecified)	GI50	2.44 µM (inactive)
Cn1c2c(c3ccccc31)CCN(CCN1CCN(c3cccc(Cl)c3)CC1)C2=O	GI50	> 100 µM (inactive)
CSc1ccc2c(cc1=O)[C@@H](NC(=O)c1ccc(Cl)cc1)CCc1cc(O)c(O)c(O)c1-2	GI50	28.1 µM (inactive)
COC1=C(OC)C(=O)c2cc(C)c(=O)c(C)cc2C1=O	GI50	2.45 µM (inactive)
CC(C)COC(=O)OC(=O)c1ccc(N(C)Cc2cnc3nc(N)nc(N)c3n2)cc1	GI50	3.69 µM (inactive)
Nc1cccc(CCN2CCN(CCCc3ccccc3)CC2)c1	GI50	25.8 µM (inactive)
O=C(N/N=C/C=C/c1ccccc1)c1ccccc1Nc1ccccc1C(=O)N/N=C/C=C/c1ccccc1	GI50	12.5 µM (inactive)

* * *

System: COLO 205
assay-summary: NCI tumour cell line growth inhibition, 48 h
Calls of active or inactive are those of the source. No stated cut-off is given here; in the data, active = GI50 up to about 1.1 µM and inactive = higher.
parameter-measured: GI50

molecule	observed
O=C(O)CNS(=O)(=O)c1ccc(NC(=O)c2ccc([N+](=O)[O-])cc2)cc1	> 100 µM (inactive)
CCCCCCCCCC1CC(=O)NCC(=O)NC(C(C)C)C(=O)NC(CC(C)C)C(=O)NC(C)C(=O)NC(C(C)C)C(=O)O1 (configuration not stated)	50.4 µM (inactive)
CCC(=O)O[C@@H]1C2C(OC(C)=O)C34COC(C)([C@@H]3C3C(C[C@]3(C)OC(C)=O)[C@@H](OC(=O)c3ccccc3)C4=O)[C@H](OC(C)=O)[C@@]2(OC(C)=O)C[C@@H]1C (some centres not stated)	43.5 µM (inactive)
C=C1CCC2[C@@H](CCC3[C@]2(C)CCC[C@]3(C)C(=O)OC)[C@@H]1CC=O (some centres not stated)	36.9 µM (inactive)
CC1(O)C=CC2CCC1C2O (configuration not stated)	30.3 µM (inactive)
COc1ccc(P2(=S)SP(=S)(c3ccc(Cl)cc3)S2)cc1 (configuration not stated)	> 100 µM (inactive)
O=S(=O)(CC#CCS(=O)(=O)c1ccccc1)c1ccccc1	1.95 µM (inactive)

* * *

System: UACC-257
assay-summary: NCI tumour cell line growth inhibition, 48 h
Active and inactive are the calls of the source. Rule as the data show it: active = GI50 up to about 1.1 µM and inactive = higher.
Classes used: 1 (yes) = active, 0 (no) = inactive

compound	category-label
S=C1CC(c2ccccc2)Sc2ccccc2N1 (stereo not drawn)	0 (no)
C[C@]12CCC3[C@@H](CC[C@@H]4c5nonc5CC[C@]34C)C1C/C(=N/O)C2=O (stereo partly drawn)	0 (no)
COc1ccc(C(O)CC(O)(C(F)(F)F)C(F)(F)F)cc1 (stereo not drawn)	0 (no)
S=c1[nH]c(=S)c2cc(Sc3ccc4[nH]c(=S)[nH]c(=S)c4c3)ccc2[nH]1	0 (no)
CC(C)(C)OC(=O)N(CCCN)CCCCN(CCCN)C(=O)OC(C)(C)C	0 (no)
O=C(O)CCC/N=C(\C(=N\CCCC(=O)O)c1ccccc1)c1ccccc1	0 (no)
C=C(C(=O)OC)N1C(=O)CC(C)C1=O (stereo not drawn)	0 (no)
OCC1O[C@H](O[C@@H]2CCCN3CC(O)C(O)[C@@H]23)C(O)C(O)C1O (stereo partly drawn)	0 (no)
C=C1C(=O)O[C@@H]2C[C@@]3(C)CCCC(=C)[C@@H]3C[C@H]12.C=C1C(=O)O[C@@H]2C[C@@]3(C)CCC[C@H](C)C3=C[C@H]12	0 (no)
COc1cc2c(cc1OCCN1CCN(CCOc3cc4c(cc3OC)C(=O)N3CCC[C@H]3C=N4)CC1)N=C[C@@H]1CCCN1C2=O	0 (no)
Oc1ccc(C[C@@H]2CN[C@H](Cc3ccc(O)c(Br)c3)CN2)cc1	0 (no)
COc1ccc(C(=O)N(C(=S)OCCOc2ccccc2)c2ccccc2)cc1	0 (no)
Fc1ccc2nc3n(c2c1)C(c1c(F)cccc1F)SC3 (stereo not drawn)	0 (no)
O=C1OC(=O)C2C1C1C(c3ccccc3)=C(c3ccccc3)C2(O)C2C(=O)OC(=O)C12 (stereo not drawn)	0 (no)
COC(=O)c1cc2c(cc1O)[C@@H](NC(C)=O)CCc1cc(OC)c(OC)c(OC)c1-2	1 (yes)
O=C(/C=C/C1C(=O)NC(=O)NC1=O)CC(=O)C(=O)Nc1cc(Cl)c(Cl)cc1Cl	0 (no)
C/C1=C\[C@H](C)C[C@H](C)OC(=O)C[C@H](c2ccc(O)cc2)NC(=O)[C@@H](Cc2c(Br)[nH]c3ccccc23)N(C)C(=O)[C@H](C)NC(=O)[C@@H](C)C1 [JASPAMIDE]	1 (yes)
O=C(O)c1cc2c3ccccc3nc-2c[nH]1	0 (no)
C/C(=C\c1csc(C)n1)[C@@H]1C[C@@H]2O[C@@H]2CCC[C@H](C)[C@H](O)[C@@H](C)C(=O)C(C)(C)[C@@H](O)CC(=O)O1 [EPOTHILONE A]	1 (yes)
CCCCOP(=O)(OCCCC)/C(C#N)=C/c1ccc(C)o1	0 (no)
COc1ccc(C(=O)O[C@H]2[C@@H]3C=CO[C@@H](OC4OC(CO)C(O)C(O)C4O)[C@@H]3[C@@]3(CO)O[C@@H]23)cc1O (stereo partly drawn)	0 (no)
CCOC(=O)C1=C(C)N(c2ccc(Cl)cc2)C2(O)C=CC(O)=C3C(=O)c4ccccc4C(=O)C312 (stereo not drawn)	0 (no)
Cc1cc2c(cc1C)[n+]([O-])c(C(=O)CC(=O)C(=O)Nc1ccccc1C)c(C)[n+]2[O-]	0 (no)
CCCCCCN(CCCCCC)C1=CC(=O)C(=O)c2ccccc21	0 (no)
COc1ccc(C2S/C(=C\c3ccc(O)cc3)C(=O)N2NC(=O)Cc2ccccc2)cc1 (stereo not drawn)	0 (no)
Clc1cccc(Cl)c1C1ON=C(c2ccccc2)N1C12CC3CC(CC(C3)C1)C2 (stereo not drawn)	0 (no)
O=C(N/C(=C/c1cccc([N+](=O)[O-])c1)c1nc2cc(Cl)ccc2[nH]1)c1ccccc1	0 (no)
c1ccc(/N=c2\snc3scc(-c4ccccc4)n23)cc1	0 (no)
